Where do the numbers come from? From paper PMC3985615.

experimental.target: Trap-1 (Homo sapiens)
Sequence (Q12931 60-704): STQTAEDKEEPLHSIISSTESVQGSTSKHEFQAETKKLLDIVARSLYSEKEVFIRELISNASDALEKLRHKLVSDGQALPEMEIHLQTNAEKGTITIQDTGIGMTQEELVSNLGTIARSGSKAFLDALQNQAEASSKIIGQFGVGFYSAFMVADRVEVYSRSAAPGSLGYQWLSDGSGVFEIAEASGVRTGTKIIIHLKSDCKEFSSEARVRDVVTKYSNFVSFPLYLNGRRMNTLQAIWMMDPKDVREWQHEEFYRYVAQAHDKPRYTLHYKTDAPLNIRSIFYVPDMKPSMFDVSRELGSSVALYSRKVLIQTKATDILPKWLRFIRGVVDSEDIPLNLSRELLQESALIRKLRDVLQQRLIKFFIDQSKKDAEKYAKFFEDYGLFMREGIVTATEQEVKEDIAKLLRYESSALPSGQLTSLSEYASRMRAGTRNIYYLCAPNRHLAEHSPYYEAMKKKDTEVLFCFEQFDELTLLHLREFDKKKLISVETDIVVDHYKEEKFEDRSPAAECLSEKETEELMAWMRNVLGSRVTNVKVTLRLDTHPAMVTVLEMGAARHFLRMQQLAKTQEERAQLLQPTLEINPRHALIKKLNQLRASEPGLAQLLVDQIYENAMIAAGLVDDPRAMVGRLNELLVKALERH
assay.context: from FP competition IC50, Table 1
experimental.endpoint: decrease in binding affinity for Trap-1 compared to Hsp90 (fold)

CC(C)NCCCn1c(Sc2cc3c(cc2I)OCO3)nc2c(N)ncnc21: 5
COC1=C2C[C@@H](C)C[C@H](OC)[C@H](O)[C@@H](C)/C=C(\C)[C@H](OC(N)=O)[C@@H](OC)/C=C\C=C(/C)C(=O)NC(=CC1=O)C2=O: 25

a. COc1c(C)cnc(Cn2cnc3c(Cl)nc(N)nc32)c1C
b. CN(C)c1cc2c(cc1Sc1nc3c(N)nccc3n1CCNCC(C)(C)C)OCO2
c. CCNC(=O)c1noc(-c2cc(C(C)C)c(O)cc2O)c1-c1ccc(CN2CCOCC2)cc1
Please list the entries, largest decrease in binding affinity for Trap-1 compared to Hsp90 first. // ordering of labels required in reply
b, a, c
(b: 50 fold, a: 5 fold, c: 2 fold)
